Attribution: paper PMC9060145

# System tested: CYP2C8 (Homo sapiens, UniProt P10632)
# Sequence (P10632 1-490): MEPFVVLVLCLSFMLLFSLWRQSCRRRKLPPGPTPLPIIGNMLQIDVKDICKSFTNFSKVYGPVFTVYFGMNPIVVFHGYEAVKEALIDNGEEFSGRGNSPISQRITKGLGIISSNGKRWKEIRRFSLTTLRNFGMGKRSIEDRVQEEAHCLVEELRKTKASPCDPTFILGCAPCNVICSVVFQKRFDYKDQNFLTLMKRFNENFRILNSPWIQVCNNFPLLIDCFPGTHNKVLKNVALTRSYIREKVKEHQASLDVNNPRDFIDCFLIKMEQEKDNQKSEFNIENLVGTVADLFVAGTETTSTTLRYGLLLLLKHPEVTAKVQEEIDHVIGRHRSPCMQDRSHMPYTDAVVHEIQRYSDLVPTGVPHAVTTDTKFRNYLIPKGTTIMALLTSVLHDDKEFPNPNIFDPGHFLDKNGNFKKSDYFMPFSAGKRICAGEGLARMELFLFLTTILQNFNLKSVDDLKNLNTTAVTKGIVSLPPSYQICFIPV
# Run description: Qualitative CYP2C8 screening, Vivid CYP2C8 Green kit, fluorimetry
# Assay type: biochemical
# Parameters: purchased Life Technologies; host or cells: Baculosomes
# Test parameters: recombinant CYP2C8 Baculosomes, probe Vivid DBOMF, 1 µM (1000 nM) compound, substrate DBOMF
Property: inhibition at 30 min, 1 µM (%)
Answers are plain numbers, in %.

Measured inhibition at 30 min, 1 µM of "CC(C)(O)c1ccccc1CC[C@@H](SCC1(CC(=O)O)CC1)c1cccc(/C=C/c2ccc3ccc(Cl)cc3n2)c1" : 100
